- protocolSummary: refractive index (Na D-line) (dimensionless)
- studyConditions: 298.15 K; 101.33 kPa; Liquid; Standard Abbe refractometry
observedProperty: refractive index
Give bare numbers.

Go through the items and report each one's refractive index.
1. COCCOC [1,2-dimethoxyethane]
2. CCCCCC [hexane]
3. Cc1ccccc1 [toluene]
4. C1CCCCC1 [cyclohexane]

Return:
1: 1.3783; 2: 1.3722; 3: 1.4941; 4: 1.4236

Every entry's value here was drawn from the NIST ThermoML archive (doi:10.1021/je030165y).
